System: K562 human chronic myeloid leukaemia cells
Assay: K562 assay (MTT cytotoxicity of released compounds)
Format: cell-based
Conditions: drug for 1 hour or 96 hours, MTT readout
Procedure: K562 human chronic myeloid leukaemia cells were maintained in RPM1 1640 medium supplemented with 10% fetal calf serum and 2 mM glutamine at 37° C. in a humidified atmosphere containing 5% CO2 and were incubated with a specified dose of drug for 1 hour or 96 hours at 37° C. in the dark. […] The optical density was then read at a wavelength of 550 nm on a Titertek Multiscan ELISA plate reader, and a dose-response curve was constructed.
READOUT_NAME: IC50 (nM)
Record the value in nM, omitting the unit from your answer.

Please give measured IC50 of the following entry: COc1cc2c(cc1OCCCCCOc1cc3c(cc1OC)C(=O)N1C=C(C)C[C@H]1C=N3)N=C[C@@H]1CC(C)=CN1C2=O
0.425
